B1: library; a variant is named by its letters at N, in order (parent)
chain: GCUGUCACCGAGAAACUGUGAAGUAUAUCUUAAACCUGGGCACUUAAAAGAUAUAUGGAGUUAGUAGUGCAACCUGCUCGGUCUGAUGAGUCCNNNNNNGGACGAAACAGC

Variants of: B1
Procedure Summary: normalized RNA/DNA level with ligand (relative to sTRSVctl = 100) (log10 (% of sTRSVctl)); HEK293T; ligand: cyclic di-GMP (c-di-GMP-II aptamer); ligand concentration (+) RNA-Seq: 1 mM; higher = less ribozyme self-cleavage, higher mRNA level
Experimental Parameters: reporter: mCherry (pCS4076), ligand present: yes
List of normalized RNA/DNA level with ligand (log10) values.
Please respond with just the number, no unit label.

Some variants with recorded normalized RNA/DNA level with ligand (log10):
Memo: GCUGUCACCGAGAAACUGUGAAGUAUAUCUUAAACCUGGGCACUUAAAAGAUAUAUGGAGUUAGUAGUGCAACCUGCUCGGUCUGAUGAGUCCCCCUUUGGACGAAACAGC , reported normalized RNA/DNA level with ligand (log10): 1.83

Recorded normalized RNA/DNA level with ligand (log10) (variant GCUGUCACCGAGAAACUGUGAAGUAUAUCUUAAACCUGGGCACUUAAAAGAUAUAUGGAGUUAGUAGUGCAACCUGCUCGGUCUGAUGAGUCCCCCUUGGGACGAAACAGC ): 1.81

For this variant ( GCUGUCACCGAGAAACUGUGAAGUAUAUCUUAAACCUGGGCACUUAAAAGAUAUAUGGAGUUAGUAGUGCAACCUGCUCGGUCUGAUGAGUCCCCAAGCGGACGAAACAGC ), measured normalized RNA/DNA level with ligand (log10) is 1.76

Short answer for GCUGUCACCGAGAAACUGUGAAGUAUAUCUUAAACCUGGGCACUUAAAAGAUAUAUGGAGUUAGUAGUGCAACCUGCUCGGUCUGAUGAGUCCACGGGUGGACGAAACAGC : normalized RNA/DNA level with ligand (log10) was 1.58

---
// field: normalized RNA/DNA level with ligand (log10); key: GCUGUCACCGAGAAACUGUGAAGUAUAUCUUAAACCUGGGCACUUAAAAGAUAUAUGGAGUUAGUAGUGCAACCUGCUCGGUCUGAUGAGUCCGUUUCCGGACGAAACAGC ; value = 1.88

# normalized RNA/DNA level with ligand (log10) (variant: GCUGUCACCGAGAAACUGUGAAGUAUAUCUUAAACCUGGGCACUUAAAAGAUAUAUGGAGUUAGUAGUGCAACCUGCUCGGUCUGAUGAGUCCUGUCCGGGACGAAACAGC ) is 1.95

Briefly, normalized RNA/DNA level with ligand (log10) measured for GCUGUCACCGAGAAACUGUGAAGUAUAUCUUAAACCUGGGCACUUAAAAGAUAUAUGGAGUUAGUAGUGCAACCUGCUCGGUCUGAUGAGUCCAGAUUUGGACGAAACAGC : 1.81

Entry GCUGUCACCGAGAAACUGUGAAGUAUAUCUUAAACCUGGGCACUUAAAAGAUAUAUGGAGUUAGUAGUGCAACCUGCUCGGUCUGAUGAGUCCUUCGACGGACGAAACAGC ; normalized RNA/DNA level with ligand (log10) = 1.79

normalized RNA/DNA level with ligand (log10) reading for GCUGUCACCGAGAAACUGUGAAGUAUAUCUUAAACCUGGGCACUUAAAAGAUAUAUGGAGUUAGUAGUGCAACCUGCUCGGUCUGAUGAGUCCAAUCGCGGACGAAACAGC : 1.89
